Target: S. mansoni TGR (Schistosoma mansoni)
Sequence (Q962Y6 1-598): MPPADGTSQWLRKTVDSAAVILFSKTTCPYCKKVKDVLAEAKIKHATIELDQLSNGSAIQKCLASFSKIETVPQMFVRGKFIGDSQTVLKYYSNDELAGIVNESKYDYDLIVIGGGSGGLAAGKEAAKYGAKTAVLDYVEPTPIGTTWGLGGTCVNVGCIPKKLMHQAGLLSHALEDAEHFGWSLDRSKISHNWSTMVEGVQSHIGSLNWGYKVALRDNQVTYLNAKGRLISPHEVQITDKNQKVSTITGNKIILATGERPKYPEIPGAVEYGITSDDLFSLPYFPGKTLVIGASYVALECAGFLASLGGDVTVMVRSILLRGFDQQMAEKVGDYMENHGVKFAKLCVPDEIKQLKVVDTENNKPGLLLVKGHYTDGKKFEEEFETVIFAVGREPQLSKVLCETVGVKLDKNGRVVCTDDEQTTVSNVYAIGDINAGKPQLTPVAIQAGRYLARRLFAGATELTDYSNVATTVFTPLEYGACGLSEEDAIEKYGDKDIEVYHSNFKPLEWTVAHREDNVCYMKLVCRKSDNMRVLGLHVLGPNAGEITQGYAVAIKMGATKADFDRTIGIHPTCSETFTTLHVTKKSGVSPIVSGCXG
Assay: IC50, Grx activity of TGR (HED assay), 15 min preincubation
Format: biochemical
Set-up: The entire TGR ORF plus the SECIS element was subcloned into pET-24a; made in house; host or cells: Escherichia coli BL21(DE3) with pSUABC
Conditions: 8 mM HED plus 1 mM GSH, 15 min preincubation with 100 μM NADPH
Please go through the items and note down their IC50.
Enter your answer as a number in nM; do not include the unit.

Quick one: give measured IC50 for CC(=O)OC[C@H]1O[C@@H]([S-])[C@H](OC(C)=O)[C@@H](OC(C)=O)[C@@H]1OC(C)=O.CCP(CC)CC.[Au+] 6

Quick one: give measured IC50 for O=C(O)CC([S-])C(=O)O.[Au+] (stereo not drawn) [Aurothiomalate] 50

Quick one: give measured IC50 for OC[C@H]1O[C@H]([S-])[C@H](O)[C@@H](O)[C@@H]1O.[Au+] 400
